Values compiled from patent US11414402B2.

Target: UniProtKB Q70CQ3
Sequence (Q70CQ3 57-517): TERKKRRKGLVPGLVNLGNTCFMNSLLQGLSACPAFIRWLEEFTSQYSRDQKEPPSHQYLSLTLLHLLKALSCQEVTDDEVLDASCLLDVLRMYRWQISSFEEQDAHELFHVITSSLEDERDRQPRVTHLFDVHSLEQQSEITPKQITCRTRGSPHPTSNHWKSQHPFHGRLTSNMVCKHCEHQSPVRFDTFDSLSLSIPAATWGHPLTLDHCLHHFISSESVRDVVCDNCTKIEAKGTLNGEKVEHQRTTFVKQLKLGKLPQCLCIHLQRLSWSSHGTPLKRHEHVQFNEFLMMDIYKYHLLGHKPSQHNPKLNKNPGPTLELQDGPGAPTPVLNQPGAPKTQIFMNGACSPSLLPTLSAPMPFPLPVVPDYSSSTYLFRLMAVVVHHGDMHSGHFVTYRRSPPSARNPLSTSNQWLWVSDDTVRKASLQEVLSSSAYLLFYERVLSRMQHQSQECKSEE
Assay: USP30 biochemical IC50 assay (fluorescence polarisation)
Conditions: USP30 CD (57-517); 30 min preincubation at room temp; TAMRA-peptide-ubiquitin substrate 50 nM; read after 2-hour incubation; read-out: IC50 range
Description: A typical 8-point dilution series would be 100, 30, 10, 3, 1, 0.3, 0.1, 0.03 μM final. […] Either 1 μl of 50% DMSO or diluted compound was added to the plate. […] Reactions were initiated by the addition of 50 nM of TAMRA labelled peptide linked to ubiquitin via an iso-peptide bond as fluorescence polarisation substrate. Reactions were read immediately after addition of substrate and following a 2-hour incubation at room temperature. […]
pIC50: −log10 of the molar value.

{"compound": "N#CN1CCC(S(=O)(=O)N2CCC(c3ccc(Cl)cc3)CC2)C1 (stereo not shown) [Example 30]", "pIC50": "> 7.00"}
{"compound": "N#CN1CC[C@H](NS(=O)(=O)c2ccccc2)C1 [Example 6]", "pIC50": "5.00 to 6.00"}
{"compound": "N#CN1CC[C@H](S(=O)(=O)N2CC(c3ccc(Cl)cc3)C2)C1 [Example 35]", "pIC50": "6.00 to 7.00"}
{"compound": "N#CN1CCC(NS(=O)(=O)c2ccc(-c3ccccc3)cn2)C1 (stereo not shown) [Example 11]", "pIC50": "6.00 to 7.00"}
